TARGET UNDER TEST: KRas G12D/Q61H double mutant (Homo sapiens (Human), UniProt P01116, G12D/Q61H)
Sequence (P01116-2 other isoform, or with tags, fused parts or gaps G12D/Q61H): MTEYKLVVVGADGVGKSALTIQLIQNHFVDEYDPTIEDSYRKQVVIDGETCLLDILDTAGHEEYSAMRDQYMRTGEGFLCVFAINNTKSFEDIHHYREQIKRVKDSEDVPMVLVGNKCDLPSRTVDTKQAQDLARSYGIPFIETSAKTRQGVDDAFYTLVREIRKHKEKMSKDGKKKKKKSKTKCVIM
TEST METHOD NOTES: Ras GTP binding domain inhibition assay (labeled GTP)
EXPERIMENTAL SETUP: 20 μM compound; read-out: % Inhibition at 20 μM KRas G12D Q61H
READOUT: inhibition at 20 µM

Kindly state the measured inhibition at 20 µM obtained for C=CCn1c(SCc2csc(-c3cccc(OC)c3OC)n2)nc2ccccc21 with KRas G12D/Q61H double mutant (Homo sapiens (Human), UniProt P01116, G12D/Q61H).
1 to 25%

Kindly state the measured inhibition at 20 µM obtained for Cc1noc(CN(Cc2ccc(C#N)cc2)Cc2cccc(F)c2)n1 with KRas G12D/Q61H double mutant (Homo sapiens (Human), UniProt P01116, G12D/Q61H).
1 to 25%

Kindly state the measured inhibition at 20 µM obtained for COc1ccccc1N1CCN(C(=O)c2csc3c(O)nc(-c4ccccn4)nc23)CC1 [drawing 2712] with KRas G12D/Q61H double mutant (Homo sapiens (Human), UniProt P01116, G12D/Q61H).
25 to 50%

Kindly state the measured inhibition at 20 µM obtained for N#Cc1ccc(C2(C(=O)Nc3ccnc(-c4ccccn4)n3)CCCC2)cc1 with KRas G12D/Q61H double mutant (Homo sapiens (Human), UniProt P01116, G12D/Q61H).
25 to 50%

Kindly state the measured inhibition at 20 µM obtained for O=c1[nH]c(-c2ccccn2)nc2[nH]nnc12 with KRas G12D/Q61H double mutant (Homo sapiens (Human), UniProt P01116, G12D/Q61H).
25 to 50%

Kindly state the measured inhibition at 20 µM obtained for C#Cc1cccc(N(CC(=O)N2CCOCC2)C(=O)c2ccc(COc3ccccc3F)o2)c1 with KRas G12D/Q61H double mutant (Homo sapiens (Human), UniProt P01116, G12D/Q61H).
1 to 25%

Kindly state the measured inhibition at 20 µM obtained for O=C(c1csc2c(O)nc(-c3ccccn3)nc12)N1CCN(Cc2ccc(O)cc2)CC1 [drawing 2764] with KRas G12D/Q61H double mutant (Homo sapiens (Human), UniProt P01116, G12D/Q61H).
1 to 25%

Kindly state the measured inhibition at 20 µM obtained for Cc1cc(O)nc(-c2ccccn2)n1 with KRas G12D/Q61H double mutant (Homo sapiens (Human), UniProt P01116, G12D/Q61H).
25 to 50%

Kindly state the measured inhibition at 20 µM obtained for O=c1[nH]c(-c2cc(OCC(F)F)ccn2)nc2cc(F)c(F)cc12 with KRas G12D/Q61H double mutant (Homo sapiens (Human), UniProt P01116, G12D/Q61H).
25 to 50%

Kindly state the measured inhibition at 20 µM obtained for Cc1cc2nc(-c3ccccn3)nc(N)c2s1 [drawing 2836] with KRas G12D/Q61H double mutant (Homo sapiens (Human), UniProt P01116, G12D/Q61H).
51 to 75%

Kindly state the measured inhibition at 20 µM obtained for c1ccc(Oc2ccccc2NCc2nc(C3CC3)no2)cc1 with KRas G12D/Q61H double mutant (Homo sapiens (Human), UniProt P01116, G12D/Q61H).
25 to 50%

Kindly state the measured inhibition at 20 µM obtained for N#Cc1ccc(N2CCCC2c2ccco2)cc1C(F)(F)F (stereo not shown) with KRas G12D/Q61H double mutant (Homo sapiens (Human), UniProt P01116, G12D/Q61H).
1 to 25%

Kindly state the measured inhibition at 20 µM obtained for Cc1cccc(OCCNC(=O)c2cc(S(=O)(=O)N3CCOCC3)ccc2N2CCOCC2)c1 with KRas G12D/Q61H double mutant (Homo sapiens (Human), UniProt P01116, G12D/Q61H).
1 to 25%

Kindly state the measured inhibition at 20 µM obtained for Oc1nc(-c2ccccn2)nc2c(-c3ccc(CN4CCOCC4)cc3)csc12 [drawing 2882] with KRas G12D/Q61H double mutant (Homo sapiens (Human), UniProt P01116, G12D/Q61H).
25 to 50%

Kindly state the measured inhibition at 20 µM obtained for Cc1c(C(=O)Nc2nc(-c3ccccn3)cs2)oc2ccccc12 with KRas G12D/Q61H double mutant (Homo sapiens (Human), UniProt P01116, G12D/Q61H).
25 to 50%

Kindly state the measured inhibition at 20 µM obtained for Cc1cc(C)n2nc(CC(=O)N(Cc3ccc(F)cc3)C3CC3)nc2n1 with KRas G12D/Q61H double mutant (Homo sapiens (Human), UniProt P01116, G12D/Q61H).
1 to 25%

Kindly state the measured inhibition at 20 µM obtained for Nc1nc(-c2ccccn2)nc2c(-c3ccccc3Cl)csc12 [drawing 2835] with KRas G12D/Q61H double mutant (Homo sapiens (Human), UniProt P01116, G12D/Q61H).
1 to 25%

Kindly state the measured inhibition at 20 µM obtained for Cc1cnc(-c2ccccn2)nc1NC(=O)COCc1ccnc(O)c1 [drawing 2816] with KRas G12D/Q61H double mutant (Homo sapiens (Human), UniProt P01116, G12D/Q61H).
25 to 50%

Kindly state the measured inhibition at 20 µM obtained for O=S1(=O)CCN(Cc2cccc(-c3csc4c(O)nc(-c5ccccn5)nc34)c2)CC1 [drawing 2864] with KRas G12D/Q61H double mutant (Homo sapiens (Human), UniProt P01116, G12D/Q61H).
51 to 75%

Kindly state the measured inhibition at 20 µM obtained for O=C(Cc1ccc2c(c1)CCCC2)Nc1nnc(-c2ccccn2)[nH]1 with KRas G12D/Q61H double mutant (Homo sapiens (Human), UniProt P01116, G12D/Q61H).
25 to 50%

Kindly state the measured inhibition at 20 µM obtained for O=C(c1csc2c(O)nc(-c3ccccn3)nc12)N1CCOC(c2nccs2)C1 (stereo not shown) [drawing 2734] with KRas G12D/Q61H double mutant (Homo sapiens (Human), UniProt P01116, G12D/Q61H).
25 to 50%

Kindly state the measured inhibition at 20 µM obtained for O=C(c1csc2c(O)nc(-c3ccccn3)nc12)N1CCN(c2ccc(Cl)cc2)CC1 with KRas G12D/Q61H double mutant (Homo sapiens (Human), UniProt P01116, G12D/Q61H).
25 to 50%

Kindly state the measured inhibition at 20 µM obtained for Cc1c(C(=O)Nc2nnc(-c3ccccn3)[nH]2)cnn1-c1ccc(C(F)(F)F)cn1 with KRas G12D/Q61H double mutant (Homo sapiens (Human), UniProt P01116, G12D/Q61H).
25 to 50%

Kindly state the measured inhibition at 20 µM obtained for COc1ccccc1CN(Cc1cccs1)C(=O)c1ccc(-c2nnn[nH]2)cc1 with KRas G12D/Q61H double mutant (Homo sapiens (Human), UniProt P01116, G12D/Q61H).
1 to 25%

Kindly state the measured inhibition at 20 µM obtained for CNS(=O)(=O)CCCNC(=O)c1csc2nc(-c3ccccn3)nc(N3CCOCC3)c12 [drawing 2791] with KRas G12D/Q61H double mutant (Homo sapiens (Human), UniProt P01116, G12D/Q61H).
1 to 25%

Kindly state the measured inhibition at 20 µM obtained for O=C(NCCc1cncnc1)c1csc2nc(-c3ccccn3)nc(N3CCOCC3)c12 [drawing 2784] with KRas G12D/Q61H double mutant (Homo sapiens (Human), UniProt P01116, G12D/Q61H).
1 to 25%

Kindly state the measured inhibition at 20 µM obtained for COCCCC1CCN(C(=O)c2csc3c(O)nc(N)nc23)CC1 [drawing 2661] with KRas G12D/Q61H double mutant (Homo sapiens (Human), UniProt P01116, G12D/Q61H).
25 to 50%

Kindly state the measured inhibition at 20 µM obtained for CCN(CC)S(=O)(=O)c1ccc(N2CCCC2)c(C(=O)NCCCn2cnc3ccccc32)c1 with KRas G12D/Q61H double mutant (Homo sapiens (Human), UniProt P01116, G12D/Q61H).
25 to 50%

Kindly state the measured inhibition at 20 µM obtained for COc1ccccc1CN(Cc1cccs1)C(=O)c1ccc(N2CCCS2(=O)=O)cc1 with KRas G12D/Q61H double mutant (Homo sapiens (Human), UniProt P01116, G12D/Q61H).
25 to 50%

Kindly state the measured inhibition at 20 µM obtained for COc1ccc(CN(Cc2cccs2)C(=O)c2oc3ccccc3c2C)cc1OC with KRas G12D/Q61H double mutant (Homo sapiens (Human), UniProt P01116, G12D/Q61H).
25 to 50%

Kindly state the measured inhibition at 20 µM obtained for COc1ccccc1CN(Cc1cccs1)C(=O)c1ccc(S(=O)(=O)N2CCOCC2)cc1 with KRas G12D/Q61H double mutant (Homo sapiens (Human), UniProt P01116, G12D/Q61H).
1 to 25%

Kindly state the measured inhibition at 20 µM obtained for COC(=O)c1ccc2c(=O)[nH]c(-c3ccccn3)nc2c1 with KRas G12D/Q61H double mutant (Homo sapiens (Human), UniProt P01116, G12D/Q61H).
25 to 50%

Kindly state the measured inhibition at 20 µM obtained for O=C(c1ccccn1)N1CCCc2c(O)nc(-c3ccccn3)nc21 [drawing 2655] with KRas G12D/Q61H double mutant (Homo sapiens (Human), UniProt P01116, G12D/Q61H).
51 to 75%

Kindly state the measured inhibition at 20 µM obtained for O=C(c1ccc(=O)[nH]n1)N1CCCc2c(O)nc(-c3ccccn3)nc21 [drawing 2646] with KRas G12D/Q61H double mutant (Homo sapiens (Human), UniProt P01116, G12D/Q61H).
25 to 50%

Kindly state the measured inhibition at 20 µM obtained for O=C(c1csc2c(O)nc(-c3ccccn3)nc12)N1CCOC(Cc2ccccc2)C1 (stereo not shown) [drawing 2771] with KRas G12D/Q61H double mutant (Homo sapiens (Human), UniProt P01116, G12D/Q61H).
25 to 50%

Kindly state the measured inhibition at 20 µM obtained for Cc1cnccc1-c1csc2c(O)nc(-c3ccccn3)nc12 [drawing 2888] with KRas G12D/Q61H double mutant (Homo sapiens (Human), UniProt P01116, G12D/Q61H).
51 to 75%

Kindly state the measured inhibition at 20 µM obtained for O=C(c1csc2c(O)nc(-c3ccccn3)nc12)N1CCNC(Cc2cccc(F)c2)C1 (stereo not shown) [drawing 2832] with KRas G12D/Q61H double mutant (Homo sapiens (Human), UniProt P01116, G12D/Q61H).
51 to 75%

Kindly state the measured inhibition at 20 µM obtained for COCCCC(=O)N1CCCc2c(O)nc(-c3ccccn3)nc21 [drawing 2648] with KRas G12D/Q61H double mutant (Homo sapiens (Human), UniProt P01116, G12D/Q61H).
51 to 75%

Kindly state the measured inhibition at 20 µM obtained for COC(=O)c1ccc(C(=O)NCC(c2ccccc2)N2CCOCC2)nc1 (stereo not shown) with KRas G12D/Q61H double mutant (Homo sapiens (Human), UniProt P01116, G12D/Q61H).
1 to 25%

Kindly state the measured inhibition at 20 µM obtained for CN(Cc1nc2ccccc2n1C)C(=O)c1cccc(Cl)n1 with KRas G12D/Q61H double mutant (Homo sapiens (Human), UniProt P01116, G12D/Q61H).
1 to 25%
